run.description: Brain Tissue Binding, equilibrium dialysis, rat
condition.summary: brain homogenate
recorded.metric: fraction unbound at 2 hr, 5 μM
When you answer, write just the number.

Entry `CCC(=O)NC1CCN(CCc2ccccc2)CC1` has what fraction unbound at 2 hr, 5 μM?
0.249

----------
tgt: CYP2D6 (Homo sapiens, UniProt P10635)
Sequence (P10635 whole entry): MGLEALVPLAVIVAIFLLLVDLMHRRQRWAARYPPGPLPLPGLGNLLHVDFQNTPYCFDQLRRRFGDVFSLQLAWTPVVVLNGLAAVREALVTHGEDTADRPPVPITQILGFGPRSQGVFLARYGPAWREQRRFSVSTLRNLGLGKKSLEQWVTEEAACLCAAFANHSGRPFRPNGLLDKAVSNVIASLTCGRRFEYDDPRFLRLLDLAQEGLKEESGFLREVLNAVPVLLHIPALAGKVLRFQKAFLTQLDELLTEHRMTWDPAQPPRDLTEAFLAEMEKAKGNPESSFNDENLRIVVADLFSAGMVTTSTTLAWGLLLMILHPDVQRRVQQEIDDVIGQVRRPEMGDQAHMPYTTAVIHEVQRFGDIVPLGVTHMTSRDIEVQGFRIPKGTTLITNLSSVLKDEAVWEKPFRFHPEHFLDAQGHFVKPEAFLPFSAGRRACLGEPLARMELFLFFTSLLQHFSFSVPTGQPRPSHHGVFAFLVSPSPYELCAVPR
run.description: Time Dependent Inhibition of CYP2D6 (Dextromethorphan; IC50 Shift)
condition.summary: 0 minute incubation
recorded.metric: IC50

Any idea what IC50 was measured for `CCC(=O)NC1CCN(CCc2ccccc2)CC1` ?
> 25 µM

----------
tgt: μ (MOP) (h) (Homo sapiens, UniProt P35372)
Sequence (P35372 whole entry): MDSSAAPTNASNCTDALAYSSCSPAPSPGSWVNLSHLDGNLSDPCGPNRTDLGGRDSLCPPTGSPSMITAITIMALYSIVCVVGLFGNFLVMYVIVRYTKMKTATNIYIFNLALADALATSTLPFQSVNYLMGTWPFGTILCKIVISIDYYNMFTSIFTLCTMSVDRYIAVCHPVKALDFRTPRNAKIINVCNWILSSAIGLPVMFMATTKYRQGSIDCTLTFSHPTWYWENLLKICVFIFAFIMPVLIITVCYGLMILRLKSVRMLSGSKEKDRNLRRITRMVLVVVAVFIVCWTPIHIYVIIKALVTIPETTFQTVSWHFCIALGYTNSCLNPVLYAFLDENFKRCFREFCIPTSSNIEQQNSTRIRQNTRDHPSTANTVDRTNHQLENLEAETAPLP
Assay type: binding
Each entry below lists one item and its recorded nH value.
Simply state the number, no unit and no words.

>  <molecule>
O=C(NC1CCN(CCc2ccccc2)CC1)c1ccoc1

>  <nH>
0.8

$$$$
>  <molecule>
CCC(=O)NC1CCN(CCC(=O)OC)CC1

>  <nH>
0.5

$$$$

Any idea what its nH is? The molecule is `O=C(NC1CCN(CCc2ccccc2)CC1)c1ccco1`
0.8

Need nH, item O=C(NC1CCN(CCc2ccccc2)CC1)c1ccccc1 [N-(1-phenethylpiperidin-4-yl)benzamide]
0.9

----------
tgt: α2B(h) (Homo sapiens)
Sequence (P18089 whole entry): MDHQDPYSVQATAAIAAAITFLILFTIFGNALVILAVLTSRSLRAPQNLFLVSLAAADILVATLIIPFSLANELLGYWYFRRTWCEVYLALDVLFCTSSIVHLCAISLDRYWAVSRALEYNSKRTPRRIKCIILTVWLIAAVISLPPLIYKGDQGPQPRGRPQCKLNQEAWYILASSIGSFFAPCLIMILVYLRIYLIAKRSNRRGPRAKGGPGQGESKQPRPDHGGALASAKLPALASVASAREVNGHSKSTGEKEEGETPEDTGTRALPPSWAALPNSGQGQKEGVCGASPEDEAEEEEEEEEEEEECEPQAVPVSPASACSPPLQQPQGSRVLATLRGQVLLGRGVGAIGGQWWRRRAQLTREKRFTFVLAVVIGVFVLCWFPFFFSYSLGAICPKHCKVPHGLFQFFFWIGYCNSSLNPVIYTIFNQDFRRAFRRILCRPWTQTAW
Format: binding
Threshold check on nH: strictly below 1 is TRUE; on or above 1 is FALSE.

>  <compound>
O=C(NC1CCN(CCc2ccccc2)CC1)c1ccoc1

>  <classification>
TRUE

$$$$
>  <compound>
O=C(NC1CCN(CCc2ccccc2)CC1)c1ccco1

>  <classification>
TRUE

$$$$

Problem: For the compound `O=C(CCCCCCCBr)NC1CCN(CCc2ccccc2)CC1` , is nH under 1?
TRUE

Does the reported nH of the following compound sit strictly below 1? O=C(NC1CCN(CCc2ccccc2)CC1)c1ccccc1 [N-(1-phenethylpiperidin-4-yl)benzamide]
FALSE

Record `CCC(=O)NC1CCN(CCc2cccs2)CC1` : is its nH strictly below 1?
FALSE

----------
tgt: δ2 (DOP) (h) (Homo sapiens, UniProt P41143)
Sequence (P41143 whole entry): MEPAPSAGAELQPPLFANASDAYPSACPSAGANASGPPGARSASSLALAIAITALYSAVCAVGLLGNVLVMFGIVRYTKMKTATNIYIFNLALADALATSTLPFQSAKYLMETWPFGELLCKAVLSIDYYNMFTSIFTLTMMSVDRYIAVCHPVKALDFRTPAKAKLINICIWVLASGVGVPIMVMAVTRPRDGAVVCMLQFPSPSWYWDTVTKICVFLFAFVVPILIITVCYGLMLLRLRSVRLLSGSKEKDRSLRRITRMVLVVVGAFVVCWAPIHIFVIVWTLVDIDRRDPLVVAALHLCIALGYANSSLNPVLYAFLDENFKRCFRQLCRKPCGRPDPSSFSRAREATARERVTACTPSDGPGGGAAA
Format: binding
recorded.metric: nH
When you answer, write just the number.

# example entries with known answers
>  <molecule>
O=C(NC1CCN(CCc2ccccc2)CC1)c1ccco1

>  <recorded.metric>
nH

>  <observed>
1

$$$$
>  <molecule>
O=C(NC1CCN(CCc2ccccc2)CC1)c1ccccc1 [N-(1-phenethylpiperidin-4-yl)benzamide]

>  <recorded.metric>
nH

>  <observed>
0.7

$$$$
>  <molecule>
CCC(=O)NC1CCN(CCc2cccs2)CC1

>  <recorded.metric>
nH

>  <observed>
0.9

$$$$

For the next question, use this molecule.
Entry `O=C(NC1CCN(CCc2ccccc2)CC1)c1ccoc1` , system δ2 (DOP) (h) (Homo sapiens, UniProt P41143): what nH was measured?
1

----------
tgt: κ (KOP) (Rattus norvegicus, UniProt P34975)
Sequence (P34975 whole entry): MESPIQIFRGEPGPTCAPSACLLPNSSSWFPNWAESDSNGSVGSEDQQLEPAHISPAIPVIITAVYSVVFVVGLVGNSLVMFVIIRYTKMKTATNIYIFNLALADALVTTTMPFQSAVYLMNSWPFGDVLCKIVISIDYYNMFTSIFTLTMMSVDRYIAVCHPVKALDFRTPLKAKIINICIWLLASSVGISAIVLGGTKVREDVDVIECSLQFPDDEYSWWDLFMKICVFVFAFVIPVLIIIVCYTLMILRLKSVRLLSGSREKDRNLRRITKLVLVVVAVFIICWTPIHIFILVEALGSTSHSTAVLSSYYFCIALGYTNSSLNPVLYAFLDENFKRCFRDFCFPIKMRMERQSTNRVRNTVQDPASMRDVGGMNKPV
Assay type: binding
recorded.metric: nH

Fill blank: measured nH of the compound `CCC(=O)NC1CCN(CCc2cccs2)CC1` is ____.
0.6

Which measured nH value corresponds to O=C(NC1CCN(CCc2ccccc2)CC1)c1ccccc1 [N-(1-phenethylpiperidin-4-yl)benzamide] ?
0.6

Which nH is listed for `O=C(CCCCCCCBr)NC1CCN(CCc2ccccc2)CC1` ?
0.5

Entry `CCC(=O)NC1CCN(CCC(=O)OC)CC1` has what nH?
0.8

I would be grateful if you could share the reported nH for `O=C(NC1CCN(CCc2ccccc2)CC1)c1ccoc1` .
1.1

What value of nH has been reported for the following compound? `O=C(NC1CCN(CCc2ccccc2)CC1)c1ccco1`
1.1
